Can you tell me pIC50 for the items I'm about to list?
measured on: Indoleamine 2,3-dioxygenase 1 (Homo sapiens)
Sequence (P14902 whole entry): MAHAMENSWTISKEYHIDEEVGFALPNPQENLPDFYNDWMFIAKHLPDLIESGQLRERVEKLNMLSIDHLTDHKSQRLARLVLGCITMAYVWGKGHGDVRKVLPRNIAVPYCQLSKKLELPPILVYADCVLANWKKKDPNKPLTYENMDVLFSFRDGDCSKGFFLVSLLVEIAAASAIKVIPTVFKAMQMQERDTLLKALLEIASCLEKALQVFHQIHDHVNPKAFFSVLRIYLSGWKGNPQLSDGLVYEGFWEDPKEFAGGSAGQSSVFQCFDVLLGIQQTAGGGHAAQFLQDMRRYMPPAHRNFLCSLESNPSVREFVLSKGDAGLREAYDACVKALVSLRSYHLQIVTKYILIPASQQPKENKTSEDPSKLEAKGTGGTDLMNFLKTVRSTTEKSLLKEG
assay text: Inhibition of IDO1 (unknown origin) assessed as reduction in N'-formlylkynurenine formation using D-Tryptophan as substrate in presence of ascorbate and methylene blue
test conditions: in the assay text read “ascorbate” for “aspartate”
Scale explanation: pIC50 corresponds to minus log10 of a concentration expressed in moles per litre.

Quick check: pIC50 of COC(=O)c1c2c(n3ccccc13)C(=O)c1ncccc1C2=O ?
6.36

Input COC(=O)c1c2c(n3ccccc13)C(=O)c1ccccc1C2=O
6.81

Input CCOC(=O)c1c2c(n3ccccc13)C(=O)c1ccccc1C2=O
6.48

Input O=C1c2cccnc2C(=O)c2c1c(C(=O)O)c1ccccn21
6.54
